The reported measurements were obtained from patent US20220175942A1.

molecular target: CCL13_HUMAN; experiment: BLI
METRIC: pKd
Value format note: pKd is -log10 of concentration (mol/L); just state the number.

Prompt line: What pKd value was documented for this binder, P546_AMBCA (other) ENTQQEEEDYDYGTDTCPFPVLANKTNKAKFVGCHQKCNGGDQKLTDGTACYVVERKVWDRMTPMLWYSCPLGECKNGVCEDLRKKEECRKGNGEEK ?
Response line: 7.88

Prompt line: What pKd value was documented for this binder, P974_AMBCA (other) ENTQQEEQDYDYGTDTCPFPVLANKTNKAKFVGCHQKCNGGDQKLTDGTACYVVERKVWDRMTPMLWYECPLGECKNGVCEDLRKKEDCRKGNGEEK ?
Response line: 7.64

Prompt line: What pKd value was documented for this binder, P985_AMBPA (other) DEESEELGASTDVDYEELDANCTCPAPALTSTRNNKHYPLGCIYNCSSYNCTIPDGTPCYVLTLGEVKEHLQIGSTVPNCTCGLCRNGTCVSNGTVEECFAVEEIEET ?
Response line: 7.05

Prompt line: What pKd value was documented for this binder, P1183_AMBTR (other) EAPKDDFEYDGGCPFVVLDNGTHVKPAGCSHLCNGAPETLDNIECYNVTEEVAKRMTPGIPYACWLGWCSKGECKRDNRTEVCYRGSEEE ?
Response line: 8.25

Prompt line: What pKd value was documented for this binder, P983_AMBPA (other) EDTGTEDDFDYGNTGCPFPVLGNYKSNMTKPVGCKNKCGSGYEVLNDTTPCYVIDQKVFNNMVPLRQYSKCPLGFCENGECKPNDQAEDCYKGREEQK ?
Response line: 7.76

Prompt line: What pKd value was documented for this binder, P1182_AMBMA (other) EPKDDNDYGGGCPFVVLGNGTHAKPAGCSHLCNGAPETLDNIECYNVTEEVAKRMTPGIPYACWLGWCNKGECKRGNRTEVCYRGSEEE ?
Response line: 7.30

Prompt line: What pKd value was documented for this binder, P1180_AMBTR (other) EEPKDGYDYTEGCPFVVLGNGTHAKPAGCSHLCNGAPETLDDNMECYNVTEEVAKRMTPDIPYTCWLGWCSKGECKRDNRTEVCYRGSERE ?
Response line: 8.05

Prompt line: What pKd value was documented for this binder, P467_RHIPU (other) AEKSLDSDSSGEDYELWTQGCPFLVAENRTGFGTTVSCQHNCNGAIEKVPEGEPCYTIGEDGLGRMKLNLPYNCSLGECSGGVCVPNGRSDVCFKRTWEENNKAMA ?
Response line: 8.59

Prompt line: What pKd value was documented for this binder, P1243_AMBAM (other) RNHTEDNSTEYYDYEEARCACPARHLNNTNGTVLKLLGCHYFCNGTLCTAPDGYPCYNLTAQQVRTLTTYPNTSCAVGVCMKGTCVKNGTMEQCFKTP ?
Response line: 9.10

Prompt line: What pKd value was documented for this binder, P991_AMBCA (other) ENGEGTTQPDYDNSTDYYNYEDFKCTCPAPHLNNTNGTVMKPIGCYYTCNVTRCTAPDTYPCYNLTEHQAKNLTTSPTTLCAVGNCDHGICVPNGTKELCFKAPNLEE ?
Response line: 9.38

Prompt line: What pKd value was documented for this binder, P1181_AMBMA (other) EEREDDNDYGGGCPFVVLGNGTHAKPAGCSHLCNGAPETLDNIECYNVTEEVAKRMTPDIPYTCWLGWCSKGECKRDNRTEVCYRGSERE ?
Response line: 7.72
